Numbers sourced from patent US7345078B2.

Recorded measurements of inhibition at 1 µM, one per entry
biological target: NF-κB (Homo sapiens, UniProt P19838+Q04206); test: EMSA of nuclear NF-κB-DNA binding in nuclear extracts of PMA-stimulated Jurkat leukemia T-cells; type: cell-based; design: endogenous in cells; host or cells: Jurkat leukemia T-cells, clone E6-1 (ATCC), PMA-stimulated; nuclear extract; conditions: compound 1.0 μM
Sequence (Q04206 whole entry): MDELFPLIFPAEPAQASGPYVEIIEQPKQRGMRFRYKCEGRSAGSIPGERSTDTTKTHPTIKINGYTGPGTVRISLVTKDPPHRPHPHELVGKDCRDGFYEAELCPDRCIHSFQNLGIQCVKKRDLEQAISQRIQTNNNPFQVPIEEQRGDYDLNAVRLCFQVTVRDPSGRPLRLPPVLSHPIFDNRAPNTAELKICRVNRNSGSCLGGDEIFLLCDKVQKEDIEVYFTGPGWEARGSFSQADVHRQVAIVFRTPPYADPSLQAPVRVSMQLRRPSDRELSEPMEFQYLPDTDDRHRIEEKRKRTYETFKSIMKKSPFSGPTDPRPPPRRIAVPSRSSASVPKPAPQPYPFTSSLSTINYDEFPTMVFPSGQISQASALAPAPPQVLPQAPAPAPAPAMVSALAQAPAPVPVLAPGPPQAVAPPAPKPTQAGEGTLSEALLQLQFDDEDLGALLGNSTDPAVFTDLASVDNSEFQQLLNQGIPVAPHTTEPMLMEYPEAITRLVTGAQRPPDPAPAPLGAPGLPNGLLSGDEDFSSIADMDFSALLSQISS
Sequence (P19838 1-433 limits assumed): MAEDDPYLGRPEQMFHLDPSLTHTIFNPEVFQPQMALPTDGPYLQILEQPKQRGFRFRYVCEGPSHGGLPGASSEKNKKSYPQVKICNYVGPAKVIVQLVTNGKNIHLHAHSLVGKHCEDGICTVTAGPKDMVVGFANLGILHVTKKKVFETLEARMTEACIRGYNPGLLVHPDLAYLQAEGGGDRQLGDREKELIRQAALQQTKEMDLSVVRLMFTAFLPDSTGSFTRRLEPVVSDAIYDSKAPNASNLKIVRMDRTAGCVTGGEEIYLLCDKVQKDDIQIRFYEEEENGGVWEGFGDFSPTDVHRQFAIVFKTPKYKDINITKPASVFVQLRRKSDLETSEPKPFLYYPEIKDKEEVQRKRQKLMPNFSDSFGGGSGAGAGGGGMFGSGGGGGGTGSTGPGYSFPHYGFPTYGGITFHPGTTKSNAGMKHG
Use % as the unit, but write only the number.

INPUT: Entry O=C(O)[C@@]1(c2ccccc2)N=C(c2ccccc2)N(Cc2ccccc2)[C@H]1c1ccccc1 (racemic) has what inhibition at 1 µM?
OUTPUT: 65

INPUT: Same thing, different molecule: C[C@]1(C(=O)O)N=C(c2ccccc2)N(Cc2ccccc2)[C@H]1c1ccccc1 (racemic)
OUTPUT: 19

INPUT: Note, next up: C[C@]1(C(=O)O)N=C(c2ccccc2)N(c2ccc(F)cc2)[C@H]1c1ccccc1 (racemic)
OUTPUT: 35

Now let's try a different one.
INPUT: GET /values?readout=inhibition at 1 µM&item= COc1ccc([C@@H]2N(Cc3ccccc3)C(c3ccccc3)=N[C@]2(C)C(=O)O)cc1 (racemic)
OUTPUT: 68
